Subject Of Test: T1, Mouse GDF15 Fc (mouse, UniProt Q9Z0J7 189-303, limits assumed)
T1 construct: also called mouse GDF15-Fc fusion; not shown: Fc part
T1 sequence (looked up): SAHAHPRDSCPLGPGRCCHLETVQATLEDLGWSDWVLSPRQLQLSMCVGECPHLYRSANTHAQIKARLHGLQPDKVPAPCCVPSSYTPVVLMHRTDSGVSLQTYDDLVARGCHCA
Assay Summary: BLI Octet; antigen on sensor, 100 nM Fab (monovalent)
Measured Kd, listed per entry for reference.
Form entry: value (nM) — number only.

GDF15 antibody agent Clone M, Fab (Fab, V domains shown, Fab; CH1 and CL of the Fab not specified; also called Fab of Clone M) VH: QVQLVQSGAEVKKPGASVKVSCKASGYTFDSYGINWVRQAPGQGLEWMGWISAYSGDTAYAQELQGRVTMTTDTSTSTAYMELRSLRSDDTAVYYCVRDTQYGGSPYWGQGTLVTVSS VL: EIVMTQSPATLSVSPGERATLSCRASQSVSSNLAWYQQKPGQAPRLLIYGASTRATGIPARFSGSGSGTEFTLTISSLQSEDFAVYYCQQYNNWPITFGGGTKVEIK = 31.4

# input for lookup
Query block: Which measured Kd value corresponds to GDF15 antibody agent Clone L, Fab (Fab, V domains shown, Fab; CH1 and CL of the Fab not specified; also called Fab of Clone L) VH: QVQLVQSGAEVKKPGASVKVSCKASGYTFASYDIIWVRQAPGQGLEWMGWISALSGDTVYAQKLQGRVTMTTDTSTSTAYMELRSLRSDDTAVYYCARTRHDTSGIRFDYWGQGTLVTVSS VL: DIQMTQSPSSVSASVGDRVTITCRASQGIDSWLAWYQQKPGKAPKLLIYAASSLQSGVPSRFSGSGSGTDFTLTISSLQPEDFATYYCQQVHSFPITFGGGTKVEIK ?
Result block: 229
